Where these numbers come from: patent US9447069B2

- measurement target: RORα LBD (Homo sapiens, UniProt P35398)
- Construct: purified GST-tagged (i) RORγ LBD or (ii) RORα LBD; purchased Life Technologies
- Sequence (P35398 272-510 limits assumed): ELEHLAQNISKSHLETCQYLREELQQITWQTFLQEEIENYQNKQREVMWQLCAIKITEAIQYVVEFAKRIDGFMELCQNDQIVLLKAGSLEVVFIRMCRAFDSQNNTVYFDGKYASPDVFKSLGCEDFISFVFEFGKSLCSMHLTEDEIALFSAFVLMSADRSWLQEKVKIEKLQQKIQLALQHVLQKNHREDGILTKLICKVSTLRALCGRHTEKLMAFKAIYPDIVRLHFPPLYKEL
- assay info: TR-FRET NCoR1-D2 co-repressor recruitment to RORα LBD
- Assay type: biochemical
- reported conditions: TR-FRET assessed 2 hr post-assay initiation; read-out: RORα EC50 NCoR1-D2 co-repressor recruitment, 2 hr
pEC50: −log10 of the molar value.
value type: pEC50

- Cc1cc(-c2ccc3c(c2)CCCN3Cc2ccc(C(O)(C(F)(F)F)C(F)(F)F)cc2)[nH]n1: > 4.52
- Cc1cc(-c2ccc3c(c2)CCN3Cc2ccc(C(O)(C(F)(F)F)C(F)(F)F)cc2)[nH]n1: < 4.52

# batch size: 7; output pEC50 per entry
1. Cc1nnc(-c2ccc3c(c2)CCN3Cc2ccc(C(O)(C(F)(F)F)C(F)(F)F)cc2)o1
2. Cc1n[nH]c(-c2ccc3c(c2)CCCN3Cc2ccc(C(O)(C(F)(F)F)C(F)(F)F)cc2)n1
3. Cc1cc(-c2ccc3c(c2)CCC(=O)N3Cc2ccc(C(O)(C(F)(F)F)C(F)(F)F)cc2)[nH]n1
4. O=C1CCc2cc(-c3cn[nH]c3)ccc2N1Cc1ccc(C(O)(C(F)(F)F)C(F)(F)F)cc1
5. OC(c1ccc(CN2CCc3cc(-c4cn[nH]c4)ccc32)cc1)(C(F)(F)F)C(F)(F)F
6. OC(c1ccc(CN2CCCc3cc(-c4cn[nH]c4)ccc32)cc1)(C(F)(F)F)C(F)(F)F
7. Cc1n[nH]c(-c2ccc3c(c2)CCC(=O)N3Cc2ccc(C(O)(C(F)(F)F)C(F)(F)F)cc2)n1

1. < 4.52
2. < 4.52
3. < 4.52
4. > 4.52
5. > 4.52
6. > 4.52
7. < 4.52

----------
- measurement target: RORα LBD (Homo sapiens, UniProt P35398)
- Construct: purified GST-tagged (i) RORγ LBD or (ii) RORα LBD; purchased Life Technologies
- assay info: TR-FRET D22 co-activator displacement from RORα LBD
- Format: biochemical
- reported conditions: TR-FRET assessed 20 hr post-assay initiation; read-out: RORα EC50 D22 co-activator displacement, 20 hr
pEC50: −log10 of the molar value.
Would you kindly list pEC50 for each of these compounds?

- O=C1CCc2cc(-c3cn[nH]c3)ccc2N1Cc1ccc(C(O)(C(F)(F)F)C(F)(F)F)cc1: < 4.52
- Cc1cc(-c2ccc3c(c2)CCN3Cc2ccc(C(O)(C(F)(F)F)C(F)(F)F)cc2)[nH]n1: > 4.52
- OC(c1ccc(CN2CCCc3cc(-c4cn[nH]c4)ccc32)cc1)(C(F)(F)F)C(F)(F)F: > 4.52

Batch: pEC50 for all items listed.
1. Cc1cc(-c2ccc3c(c2)CCCN3Cc2ccc(C(O)(C(F)(F)F)C(F)(F)F)cc2)[nH]n1
2. Cc1n[nH]c(-c2ccc3c(c2)CCCN3Cc2ccc(C(O)(C(F)(F)F)C(F)(F)F)cc2)n1
3. Cc1cc(-c2ccc3c(c2)CCC(=O)N3Cc2ccc(C(O)(C(F)(F)F)C(F)(F)F)cc2)[nH]n1
4. Cc1n[nH]c(-c2ccc3c(c2)CCC(=O)N3Cc2ccc(C(O)(C(F)(F)F)C(F)(F)F)cc2)n1
5. OC(c1ccc(CN2CCc3cc(-c4cn[nH]c4)ccc32)cc1)(C(F)(F)F)C(F)(F)F
6. Cc1nnc(-c2ccc3c(c2)CCN3Cc2ccc(C(O)(C(F)(F)F)C(F)(F)F)cc2)o1

["> 4.52", "< 4.52", "< 4.52", "> 4.52", "> 4.52", "> 4.52"]

----------
- measurement target: RORγ LBD (Homo sapiens)
- assay info: TR-FRET D22 co-activator displacement from RORγ LBD
- Type: biochemical
- Parameters: purified GST-tagged (i) RORγ LBD or (ii) RORα LBD; purchased Life Technologies
- reported conditions: TR-FRET assessed 20 hr post-assay initiation; read-out: RORγ EC50 D22 co-activator displacement, 20 hr
pEC50: −log10 of the molar value.
value type: pEC50

Previously resolved entries follow.
- Cc1cc(-c2ccc3c(c2)CCC(=O)N3Cc2ccc(C(O)(C(F)(F)F)C(F)(F)F)cc2)[nH]n1: < 4.52
- OC(c1ccc(CN2CCCc3cc(-c4cn[nH]c4)ccc32)cc1)(C(F)(F)F)C(F)(F)F: > 4.52

For every item in the list below, what is its measured pEC50?
1. Cc1cc(-c2ccc3c(c2)CCN3Cc2ccc(C(O)(C(F)(F)F)C(F)(F)F)cc2)[nH]n1
2. Cc1nnc(-c2ccc3c(c2)CCN3Cc2ccc(C(O)(C(F)(F)F)C(F)(F)F)cc2)o1

1. > 4.52
2. < 4.52

Request the reported pEC50 associated with OC(c1ccc(CN2CCc3cc(-c4cn[nH]c4)ccc32)cc1)(C(F)(F)F)C(F)(F)F
> 4.52

----------
Could you please report measured EC50 for the items listed next?
- measurement target: RORγ LBD (Homo sapiens)
- Sequence (P51449 269-508 limits assumed): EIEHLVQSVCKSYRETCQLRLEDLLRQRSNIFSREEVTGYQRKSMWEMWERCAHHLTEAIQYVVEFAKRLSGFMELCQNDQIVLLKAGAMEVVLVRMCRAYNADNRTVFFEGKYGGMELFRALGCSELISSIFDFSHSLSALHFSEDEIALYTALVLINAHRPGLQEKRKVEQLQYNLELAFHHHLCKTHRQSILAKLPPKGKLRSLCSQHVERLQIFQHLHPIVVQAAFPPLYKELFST
- assay info: TR-FRET NCoR1-D2 co-repressor recruitment to RORγ LBD
- Type: biochemical
- Set-up: purified GST-tagged (i) RORγ LBD or (ii) RORα LBD; purchased Life Technologies
- reported conditions: TR-FRET assessed 20 hr post-assay initiation; read-out: RORγ EC50 NCoR1-D2 co-repressor recruitment, 20 hr

Below: 4 compounds and their reported EC50.
* Cc1n[nH]c(-c2ccc3c(c2)CCCN3Cc2ccc(C(O)(C(F)(F)F)C(F)(F)F)cc2)n1 | < 30 µM
* Cc1cc(-c2ccc3c(c2)CCC(=O)N3Cc2ccc(C(O)(C(F)(F)F)C(F)(F)F)cc2)[nH]n1 | < 30 µM
* OC(c1ccc(CN2CCc3cc(-c4cn[nH]c4)ccc32)cc1)(C(F)(F)F)C(F)(F)F | > 30 µM
* Cc1cc(-c2ccc3c(c2)CCN3Cc2ccc(C(O)(C(F)(F)F)C(F)(F)F)cc2)[nH]n1 | < 30 µM

RORγ LBD (Homo sapiens) / EC50 / O=C1CCc2cc(-c3cn[nH]c3)ccc2N1Cc1ccc(C(O)(C(F)(F)F)C(F)(F)F)cc1 : value?
< 30 µM

----------
- measurement target: RORγ LBD (Homo sapiens)
- Sequence (P51449 269-508 limits assumed): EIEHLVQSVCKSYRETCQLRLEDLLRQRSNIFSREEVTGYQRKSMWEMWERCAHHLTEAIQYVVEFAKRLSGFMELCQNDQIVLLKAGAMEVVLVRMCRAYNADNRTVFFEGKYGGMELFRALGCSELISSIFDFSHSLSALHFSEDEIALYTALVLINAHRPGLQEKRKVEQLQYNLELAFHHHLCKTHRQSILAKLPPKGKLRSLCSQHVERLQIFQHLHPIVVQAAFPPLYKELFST
- assay info: TR-FRET NCoR1-D2 co-repressor recruitment to RORγ LBD
- Assay type: biochemical
- Design: purified GST-tagged (i) RORγ LBD or (ii) RORα LBD; purchased Life Technologies
- reported conditions: TR-FRET assessed 2 hr post-assay initiation; read-out: RORγ EC50 NCoR1-D2 co-repressor recruitment, 2 hr
value type: EC50

• Cc1cc(-c2ccc3c(c2)CCCN3Cc2ccc(C(O)(C(F)(F)F)C(F)(F)F)cc2)[nH]n1 [Example 1] = > 30 µM
• Cc1cc(-c2ccc3c(c2)CCC(=O)N3Cc2ccc(C(O)(C(F)(F)F)C(F)(F)F)cc2)[nH]n1 [Example 4] = > 30 µM
• OC(c1ccc(CN2CCCc3cc(-c4cn[nH]c4)ccc32)cc1)(C(F)(F)F)C(F)(F)F [Example 2] = < 30 µM
• O=C1CCc2cc(-c3cn[nH]c3)ccc2N1Cc1ccc(C(O)(C(F)(F)F)C(F)(F)F)cc1 [Example 5] = > 30 µM

Now for a further molecule.
Reported EC50, molecule Cc1nnc(-c2ccc3c(c2)CCN3Cc2ccc(C(O)(C(F)(F)F)C(F)(F)F)cc2)o1 [Example 9] : ____
< 30 µM
